Where these numbers come from: ChEMBL document CHEMBL3507680

Assay: Human HepG2 cell viability assay in 384 well format
Assay type: toxicity, cell-based
Set-up: dose 125 nL, time 70.5 hour; concentration not given beside the values
Conditions: HepG2 cells, read-out: Inhibition
Record form. Attribute: cytotoxicity at 70.5 h. Fill in for each entry.
Only the number, expressed in %, is required.

[ask] For COC(C(=O)NCc1c(C)nc2cc(=O)[nH]n2c1C)c1ccccc1 (configuration not stated) , what is its reported cytotoxicity at 70.5 h?
[reply] -3.2

[ask] For CCC(C)(CNC(=O)c1ccon1)NC(=O)c1ccon1 (configuration not stated) , what is its reported cytotoxicity at 70.5 h?
[reply] -8.49

[ask] For CC(C)Cc1noc(CN(C)C2CCCC2)n1 , what is its reported cytotoxicity at 70.5 h?
[reply] 28.6

[ask] For CNC(=O)NC(=O)CSc1ccc2c(c1)CCC2 , what is its reported cytotoxicity at 70.5 h?
[reply] -5.43

[ask] For CC(C)c1cc(N(C)Cc2noc(C3CCCC3)n2)n2nccc2n1 , what is its reported cytotoxicity at 70.5 h?
[reply] -13.6

[ask] For Cc1nccc(-c2cccc(NCC(=O)N3CCNC3=O)c2)n1 , what is its reported cytotoxicity at 70.5 h?
[reply] -0.295

[ask] For O=C(Cc1ccc(F)cc1)NS(=O)(=O)c1ccc(F)c(F)c1 , what is its reported cytotoxicity at 70.5 h?
[reply] -2.89

[ask] For O=C(O)c1cn(CC2CCCN(c3cnc4ccccc4n3)C2)nn1 (configuration not stated) , what is its reported cytotoxicity at 70.5 h?
[reply] -3.54

[ask] For CCc1nc(C)c(C(=O)NCC2COc3cc(OC)ccc3C2)o1 (configuration not stated) , what is its reported cytotoxicity at 70.5 h?
[reply] 42.6

[ask] For NC(=O)c1cccc(CCNC(=O)N2Cc3ccccc3C2)c1 , what is its reported cytotoxicity at 70.5 h?
[reply] -2.71

[ask] For Cc1ccc(C)c2c(O)cc(CN3CCC(c4nncn4C)CC3)nc12 , what is its reported cytotoxicity at 70.5 h?
[reply] 0.0856

[ask] For CN1C(=O)CO[C@H](c2ccc(NC(=O)NC(C)(C)C)cc2)[C@H]1CO , what is its reported cytotoxicity at 70.5 h?
[reply] -0.339

[ask] For Cc1csc(NC(=O)[C@@H]2C[C@H]3[C@H](CCN3c3ncccn3)O2)n1 , what is its reported cytotoxicity at 70.5 h?
[reply] 18.3

[ask] For COCC(=O)N1CCC2(CC1)CN(c1ccsc1)C(=O)CO2 , what is its reported cytotoxicity at 70.5 h?
[reply] -8.62

[ask] For COCc1nc(C(=O)NS(=O)(=O)c2cc(F)ccc2F)cs1 , what is its reported cytotoxicity at 70.5 h?
[reply] 20.7

[ask] For CC(C)Nc1nc2c(c(NC3CC3)n1)CCN(C1CCOCC1)CC2 , what is its reported cytotoxicity at 70.5 h?
[reply] -3.76

[ask] For Cc1nc(CN2CCC(N(C)Cc3noc(C(C)C)n3)C2)oc1C (configuration not stated) , what is its reported cytotoxicity at 70.5 h?
[reply] 10.7

[ask] For CC(C)NC(=O)N1CC[C@@H]2CN(S(C)(=O)=O)CCO[C@@H]2C1 , what is its reported cytotoxicity at 70.5 h?
[reply] -4.96

[ask] For Cn1ccnc1CN(CCO)C(=O)c1cnc2ccccc2c1 , what is its reported cytotoxicity at 70.5 h?
[reply] 0.182

[ask] For Cn1c(CN2CCCCC2)nnc1C1CCCN(c2ccncc2F)C1 (configuration not stated) , what is its reported cytotoxicity at 70.5 h?
[reply] -5.33

[ask] For Cc1cc(C(=O)N(C)C)c2c(Br)cccc2n1 , what is its reported cytotoxicity at 70.5 h?
[reply] -10.8

[ask] For Cc1nnc(CN2CCCC2c2ccc(Cl)c(Cl)c2)o1 (configuration not stated) , what is its reported cytotoxicity at 70.5 h?
[reply] -1.84

[ask] For CC(C)(C)C(O)CN1CCN(C(=O)c2cccc3ncccc23)CC1 (configuration not stated) , what is its reported cytotoxicity at 70.5 h?
[reply] 20.7

[ask] For Cc1cc(CN2CC[C@H]3C[C@@H](c4nc(C5CC5)cs4)O[C@@H]3C2)no1 , what is its reported cytotoxicity at 70.5 h?
[reply] -2.95

[ask] For CC(C)NC(=O)N1CCN(CC2CC2)c2ncccc2C1 , what is its reported cytotoxicity at 70.5 h?
[reply] -15.2

[ask] For CC(C)S(=O)(=O)CC(=O)NCC(Cc1ccc(F)cc1)C(N)=O (configuration not stated) , what is its reported cytotoxicity at 70.5 h?
[reply] 1.75

[ask] For Cc1cnn(CC2CCCN2C(=O)CCc2ccc3c(c2)OCO3)c1 (configuration not stated) , what is its reported cytotoxicity at 70.5 h?
[reply] 20.8

[ask] For CCn1ncc2c1CN(C(=O)c1cscn1)CC2COC (configuration not stated) , what is its reported cytotoxicity at 70.5 h?
[reply] -7.98

[ask] For COc1ccccc1CN1CC[C@H]2[C@@H](C1)[C@H](c1ccsc1)CN2C(C)=O , what is its reported cytotoxicity at 70.5 h?
[reply] 18.4

[ask] For Cc1cc(C)n(CC2CCCCN2CCc2ccncc2)n1 (configuration not stated) , what is its reported cytotoxicity at 70.5 h?
[reply] 4.66

[ask] For Cc1ccc(C(=O)N(C)C)cc1NC(=O)COCC1CC1 , what is its reported cytotoxicity at 70.5 h?
[reply] -6.84

[ask] For CN(C)c1cnn(CC(=O)N2Cc3ccccc3C2)c(=O)c1 , what is its reported cytotoxicity at 70.5 h?
[reply] 22

[ask] For Cn1cc(C(=O)NCc2cncc3c2CCN(c2ccccn2)C3)cn1 , what is its reported cytotoxicity at 70.5 h?
[reply] 17.4

[ask] For COc1ccccc1CN1C(=O)O[C@@H]2CN(C(C)C)C[C@@H]21 , what is its reported cytotoxicity at 70.5 h?
[reply] -0.224

[ask] For FC(F)CNc1cnc(C2CCNCC2)cn1 , what is its reported cytotoxicity at 70.5 h?
[reply] -5.8

[ask] For Cc1noc(C)c1CN1C[C@H]2CNC[C@H]2C1 , what is its reported cytotoxicity at 70.5 h?
[reply] -2.52

[ask] For CCC1(CC)CC(=O)N(CC(O)c2cccc(F)c2)C1=O (configuration not stated) , what is its reported cytotoxicity at 70.5 h?
[reply] -3.42

[ask] For CSc1nc2ccsc2c(=O)n1CC(=O)N(C)c1ccccc1 , what is its reported cytotoxicity at 70.5 h?
[reply] -4.9

[ask] For CNC(=O)[C@@H]1[C@H]2CN(Cc3ccoc3)CCN2C[C@H]1c1ccccc1 , what is its reported cytotoxicity at 70.5 h?
[reply] -0.196

[ask] For O=C(NCc1ccccc1CN1CCCC1)Nc1nncs1 , what is its reported cytotoxicity at 70.5 h?
[reply] 3.29

[ask] For CC(C)(NS(C)(=O)=O)c1nc(-c2ccc(F)cc2Cl)no1 , what is its reported cytotoxicity at 70.5 h?
[reply] -6.02

[ask] For CC(=O)N1CCC2(CC1)CC(Oc1ccccc1)CO2 (configuration not stated) , what is its reported cytotoxicity at 70.5 h?
[reply] -7.56

[ask] For CCOCC1CN(C(=O)Cc2ccccn2)Cc2cn(CC)nc21 (configuration not stated) , what is its reported cytotoxicity at 70.5 h?
[reply] -8.43

[ask] For O=S(=O)(Nc1cnc(N2CCOCC2)nc1)c1ccc(C(F)(F)F)cc1 , what is its reported cytotoxicity at 70.5 h?
[reply] 2.45

[ask] For CCc1ccc(C(=O)N2CCCC(n3cncn3)C2)o1 (configuration not stated) , what is its reported cytotoxicity at 70.5 h?
[reply] -2.71

[ask] For Cn1cnc2c1C(COCc1cccnc1)N(Cc1ccccn1)CC2 (configuration not stated) , what is its reported cytotoxicity at 70.5 h?
[reply] -3.62

[ask] For Cc1nc(CNC(=O)Nc2cc(F)ccc2OC(F)F)no1 , what is its reported cytotoxicity at 70.5 h?
[reply] -3.38
